Reported Drug uptake values are given for each entry in this list.
assay_overview: Cellular uptake in human OVCAR3 cell nucleus assessed as per 10^3 cells after 24 hrs by gamma counting
Assay type: ADME, cell-based
condition_parameters: ovcar-3, 24 h, 24 h

molecule: CC(C)(C)c1cc(C(C)(C)C)c2c(c1F)COP(=O)(OC[C@H]1O[C@@H](n3cc([125I])c(=O)[nH]c3=O)C[C@@H]1O)O2 (stereo in doubt; 8b)
Drug uptake: 92.2 cpm
--
molecule: Cc1cccc2c1OP(=O)(OC[C@H]1O[C@@H](n3cc([125I])c(=O)[nH]c3=O)C[C@@H]1O)OC2 (stereo in doubt; form 2)
Drug uptake: 29.3 cpm
--
molecule: O=c1[nH]c(=O)n([C@H]2C[C@H](O)[C@@H](COP3(=O)OCc4ccccc4O3)O2)cc1[125I] (stereo in doubt; form 2)
Drug uptake: 31.3 cpm

Source: ChEMBL document CHEMBL2146438
